system: tetA promoter (PtetA)-lacZ reporter in E. coli KM3; assay type: cell-based; settings: Table 10; sulfometuron 2 ppm; 48 hours at 30° C.
relative β-galactosidase activity, inducer Sm: recorded values
Keep the answer to the number alone.

{"MOLECULE": "L1-9: library L1 hit, sulfonylurea-responsive TetR(B) variant, parent of L2 and L4 (protein, Sulfonylurea responsive repressor L1-09) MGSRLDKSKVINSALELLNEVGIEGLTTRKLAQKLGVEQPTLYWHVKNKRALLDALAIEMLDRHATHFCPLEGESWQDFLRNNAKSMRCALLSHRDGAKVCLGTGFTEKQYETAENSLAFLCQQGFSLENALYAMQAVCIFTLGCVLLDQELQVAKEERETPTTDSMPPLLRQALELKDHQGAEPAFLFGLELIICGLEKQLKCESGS", "RESULT_VALUE": 0.9}
{"MOLECULE": "L1-29: library L1 hit, sulfonylurea-responsive TetR(B) variant, SEQ ID NO: 10 (protein, Sulfonylurea responsive repressor L1-29) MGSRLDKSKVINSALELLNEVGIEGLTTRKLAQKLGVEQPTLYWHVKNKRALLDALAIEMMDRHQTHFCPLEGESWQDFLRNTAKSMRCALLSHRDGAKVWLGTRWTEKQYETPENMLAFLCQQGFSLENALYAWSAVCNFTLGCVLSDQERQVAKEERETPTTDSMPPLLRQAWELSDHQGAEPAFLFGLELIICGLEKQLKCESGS", "RESULT_VALUE": 0.2}
{"MOLECULE": "L1-44: library L1 hit, sulfonylurea-responsive TetR(B) variant, SEQ ID NO: 13 (protein, Sulfonylurea responsive repressor L1-44) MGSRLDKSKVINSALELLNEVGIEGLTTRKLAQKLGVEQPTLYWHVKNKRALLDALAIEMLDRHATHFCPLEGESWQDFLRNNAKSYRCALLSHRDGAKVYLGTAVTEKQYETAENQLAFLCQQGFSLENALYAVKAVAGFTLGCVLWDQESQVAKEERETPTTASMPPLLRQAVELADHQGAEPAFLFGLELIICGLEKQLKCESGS", "RESULT_VALUE": 0.6}

Attention now turns to another entry.
Q. Note down relative β-galactosidase activity, inducer Sm recorded for L1-22: library L1 hit, sulfonylurea-responsive TetR(B) variant, SEQ ID NO: 7 (protein, Sulfornylurea responsive repressor L1-22) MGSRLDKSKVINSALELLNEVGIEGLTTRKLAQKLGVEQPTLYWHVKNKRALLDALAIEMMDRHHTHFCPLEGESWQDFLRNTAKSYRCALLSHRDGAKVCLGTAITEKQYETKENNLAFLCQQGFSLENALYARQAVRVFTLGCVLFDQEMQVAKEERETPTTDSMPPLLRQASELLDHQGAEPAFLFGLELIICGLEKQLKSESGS
A. 1.8

Source listed as patent US8580556B2.
